- Test system: Plasmodium berghei (Pb-Luc) exoerythrocytic-stage parasites
- test parameters: concentration 0.00152416, second replicate series; fraction of control
Note to self: normalized signal at 0.00152416 (second series) under 0.9 means yes (1), ties and anything higher get no (0).

- sample smiles: "O=C(Cc1ccccn1)N1CC2(C1)[C@H](c1ccccc1)[C@H](CO)N2C(=O)c1ccncc1"
  label class: "no (0)"
- sample smiles: "C/C=C/c1ccc([C@H]2[C@@H](CO)N(CC3CCCCC3)[C@@H]2CNC(C)C)cc1"
  label class: "yes (1)"
- sample smiles: "COc1ccc(NC(=O)N(C)C[C@H]2Oc3c(NC(=O)CCCCCC(=O)Nc4ccccc4N)cccc3C(=O)N([C@H](C)CO)C[C@H]2C)cc1"
  label class: "yes (1)"
- sample smiles: "C[C@@H]1CN([C@H](C)CO)C(=O)c2cccc(NC(=O)c3ccc(-c4nccs4)cc3)c2O[C@H]1CN(C)C(=O)Nc1ccc(C(F)(F)F)cc1"
  label class: "no (0)"
- sample smiles: "N#C[C@@H]1[C@H](c2ccccc2C2=CCCC2)[C@H](CO)N1C(=O)C1CCOCC1"
  label class: "no (0)"
- sample smiles: "COc1ccc(NC(=O)N(C)C[C@H]2Oc3ccc(NC(=O)Nc4cccc5ccccc45)cc3CC(=O)N([C@@H](C)CO)C[C@@H]2C)cc1"
  label class: "no (0)"

Where do the numbers come from? From paper PMC4890880.
